- System: ROCK1
- Run Parameters: concentration: 1 μM, replicates: in singlicate; n = 1;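 also: KINOMEscan kinase panel screen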
For each record, write down the corresponding %Inh.
Report only the number, with the unit % understood.

Look up ROCK1 data: %Inh of "O=C(Nc1n[nH]c2nc(-c3ccccc3)ccc12)C1CC1" , then report it.
21

Look up ROCK1 data: %Inh of "CN(c1ccc2c(c1)nc(NCc1ccccc1)n2C)c1ccnc(Nc2ccc(CS(C)(=O)=O)cc2)n1.Cl" , then report it.
20

Look up ROCK1 data: %Inh of "CCNC(=O)/C=C/c1n[nH]c2cc(Sc3ccccc3C(=O)NC)ccc12" , then report it.
4

###

For each record, write down the corresponding %Inh.
- System: TAOK2
- Run Parameters: concentration: 1 μM, replicates: in singlicate; n = 1
Report only the number, with the unit % understood.

Give the measured %Inh for "COc1cccc(NC(=O)NCCNc2ccnc(Nc3ccc(F)cc3)n2)c1"
0

Give the measured %Inh for "Cc1cc(-c2c(-c3ccc(F)cc3)ncn2CCCN2CCOCC2)nc(N)n1"
38

Give the measured %Inh for "Fc1cc(Cl)ccc1Nc1ccnc2cc(-c3ccc(CN4CCSCC4)o3)ccc12"
0

Give the measured %Inh for "O=C(O)C(F)(F)F.O=c1[nH]ccc2nc(N[C@@H]3CCNC3)nc(Nc3cc(Cl)cc(Cl)c3)c12"
3

Give the measured %Inh for "COc1cccc2c(-c3ccncc3)c(-c3ccc(F)cc3)nn12"
0

Give the measured %Inh for "Cc1ccc(Nc2ccnc(Nc3ccc(C)c(F)c3)n2)cc1O.Cl"
0

Give the measured %Inh for "CS(=O)(=O)c1cccc(CNc2nc(Nc3ccc4c(c3)CCC(=O)N4)ncc2C(F)(F)F)c1"
21

Give the measured %Inh for "O=C(Nc1n[nH]c2cc(-c3cccs3)ccc12)C1CC1"
0

Give the measured %Inh for "O=C(Nc1n[nH]c2nc(-c3ccccc3O)ccc12)C1CC1"
0

Give the measured %Inh for "CC(=O)Nc1cn2nc(Oc3cccc(NC(=O)c4cccc(C(F)(F)F)c4)c3)ccc2n1"
34

Give the measured %Inh for COc1cc(Nc2nccc(N3CCC(NC(=O)Nc4ccc5c(c4)OCO5)C3)n2)cc(OC)c1OC (centres unmarked)
0

Give the measured %Inh for "N#Cc1cnc2cc(-c3cnc(CNCCN4CCOCC4)s3)ccc2c1Nc1ccc(Oc2ccccc2)cc1"
0

Give the measured %Inh for "CCOc1nccc(-c2c(-c3ccc(F)cc3)ncn2C2CCNCC2)n1"
0

Give the measured %Inh for "Cc1nn2c(=O)cc(N3CCO[C@H](C)C3)nc2n1Cc1cccc(Cl)c1Cl"
0

Give the measured %Inh for "COc1cccc(-c2nc(-c3ccccc3)[nH]c2-c2ccncc2)c1"
0

Give the measured %Inh for "N#CC1(c2cccc(C(=O)Nc3cccc(Oc4ccc5nc(NC(=O)C6CC6)sc5n4)c3)c2)CC1"
28

Give the measured %Inh for "CN(C)CCOc1ccc(-c2cc(-c3ccc(Cl)c(O)c3)c(-c3ccncc3)[nH]2)cc1.Cl.Cl"
1

Give the measured %Inh for "COc1ccc(C)c(Nc2ccnc(Nc3ccc(-c4cnc[nH]4)cc3)n2)c1.Cl"
3

Give the measured %Inh for "CCn1c(-c2nonc2N)nc2c(-c3ccccc3)ncc(OCCCN)c21.O=C(O)C(F)(F)F.O=C(O)C(F)(F)F"
0

Give the measured %Inh for "CN(c1ccc(NC(=O)Nc2cccc(Cl)c2)cc1)c1ccnc(N)n1.Cl"
8

Give the measured %Inh for "O=C1NC(=O)C(c2ccccc2Cl)=C1Nc1cccc(Cl)c1"
0

Give the measured %Inh for "Cn1cc(-c2ccc3c(c2)CCN3C(=O)Cc2cc(F)cc(F)c2F)c2c(N)ncnc21"
0

Give the measured %Inh for "CN(C)CCNS(=O)(=O)c1ccc(-c2ccnc3[nH]ccc23)cc1"
0

Give the measured %Inh for "O=C(Nc1c(F)cccc1F)c1cc(C(=O)c2ccccc2F)c[nH]1"
0

Give the measured %Inh for "CC(C)c1nc(-c2cccc(NS(=O)(=O)c3c(F)cccc3F)c2)c(-c2ccnc(Nc3ccc(N4CCOCC4)nc3)n2)s1.Cl"
0

Give the measured %Inh for "Cc1ccc(O)cc1Nc1ccnc2ccc(C(C)(C)C)cc12"
13

###

For each record, write down the corresponding %Inh.
- System: ERBB3
- Run Parameters: concentration: 1 μM, replicates: in singlicate; n = 1
Report only the number, with the unit % understood.

Give the measured %Inh for "CN(C)CCOc1ccc(-c2cc(-c3ccc(Cl)c(O)c3)c(-c3ccncc3)[nH]2)cc1.Cl.Cl"
23

Give the measured %Inh for "Nc1ncc(-c2cn[nH]c2)c2scc(-c3ccc4c(c3)CCN4C(=O)Cc3ccccc3)c12"
0

Give the measured %Inh for "CCn1cnc2c(NCc3ccccc3)ncnc21"
28

Give the measured %Inh for "O=C(Nc1n[nH]c2cc(-c3cccs3)ccc12)C1CC1"
0

Give the measured %Inh for "Cl.O=C(Nc1ccc(Oc2ccc3[nH]c(NC(=O)c4ccco4)nc3c2)cc1)Nc1cc(C(F)(F)F)ccc1F"
0

Give the measured %Inh for "CNc1nccc(-c2ccc3c(N)n[nH]c3c2)n1"
8

Give the measured %Inh for "CN(C)CCNS(=O)(=O)c1ccc(-c2ccnc3[nH]ccc23)cc1"
0

Give the measured %Inh for "O=C(Nc1n[nH]c2nc(-c3cccc(O)c3)ccc12)C1CC1"
0

Give the measured %Inh for "Cl.N#CCc1ccc(Nc2nccc(Nc3ccc(Oc4ccccc4)cc3)n2)cc1"
96.3

Give the measured %Inh for Cl.Cl.NC(CNC(=O)c1cc(Br)c(-c2ccnc3[nH]ccc23)s1)c1ccccc1 (stereo not shown)
18

Give the measured %Inh for "CN(c1ccc(NC(=O)Nc2cccc(Cl)c2)cc1)c1ccnc(N)n1.Cl"
17

Give the measured %Inh for "Fc1cc(Cl)ccc1Nc1ccnc2cc(-c3ccc(CN4CCSCC4)o3)ccc12"
77

Give the measured %Inh for "Cc1ccc(NC(=O)c2ccnc(N3CCCCC3)c2)cc1-c1ccc(C(=O)NCC2CC2)cc1"
0

Give the measured %Inh for "CC(C)(C)c1ccc(C(=O)Nc2cn3cc(-n4ccnc4)ccc3n2)cc1"
8

Give the measured %Inh for "COc1cc(Nc2ccnc3cc(-c4ccncc4)ccc23)cc(OC)c1OC.Cl"
50

Give the measured %Inh for "COc1ccc(NC(=O)c2ccoc2)cc1-c1ccc(C(=O)NCC2CC2)cc1"
12

Give the measured %Inh for "O=C(O)C(F)(F)F.O=c1[nH]ccc2nc(N[C@@H]3CCNC3)nc(Nc3cc(Cl)cc(Cl)c3)c12"
0

Give the measured %Inh for "CN1CCN(Cc2ccc(NC(=O)Nc3ccc(N(C)c4ccnc(Nc5ccc(CS(C)(=O)=O)cc5)n4)cc3)cc2)CC1.Cl"
45

Give the measured %Inh for "Cn1cc(-c2ccc3c(c2)CCN3C(=O)Cc2cc(F)cc(F)c2F)c2c(N)ncnc21"
0

###

For each record, write down the corresponding %Inh.
- System: CAMK1
- Run Parameters: concentration: 1 μM, replicates: in singlicate; n = 1

Give the measured %Inh for COc1ccc(NC(=O)c2ccoc2)cc1-c1ccc(C(=O)NCC2CC2)cc1 [GW810437]
0%

Give the measured %Inh for COc1cc(Nc2nccc(N3CCC(NC(=O)Nc4ccc5c(c4)OCO5)C3)n2)cc(OC)c1OC (centres unmarked) [GSK1379766]
28%

Give the measured %Inh for COC(=O)Nc1nc2ccc(Oc3ccc(NC(=O)Nc4cc(C(F)(F)F)ccc4F)cc3)cc2[nH]1.Cl [GW654607]
2%

Give the measured %Inh for CSc1ccc(NC2=C(c3ccc(Cl)cc3)C(=O)NC2=O)cc1 [SB-317658]
19%

Give the measured %Inh for CN(c1ccc2c(c1)nc(NCc1ccccc1)n2C)c1ccnc(Nc2ccc(CS(C)(=O)=O)cc2)n1.Cl [GW811603]
0%

Give the measured %Inh for COc1cccc(NC(=O)NCCNc2ccnc(Nc3ccc(F)cc3)n2)c1 [GSK1379879]
7%

Give the measured %Inh for "CCNc1nccc(-c2c(-c3ccc(F)cc3)ncn2C2CCN(C)CC2)n1"
0%

Give the measured %Inh for CN1CCN(Cc2ccc(NC(=O)Nc3ccc(N(C)c4ccnc(Nc5ccc(CS(C)(=O)=O)cc5)n4)cc3)cc2)CC1.Cl [GW827654]
28%

###

- System: JAK2(JH1domain-catalytic)
- Run Parameters: concentration: 1 μM, replicates: in singlicate; n = 1
For each record, write down the corresponding %Inh.
Report only the number, with the unit % understood.

Give the measured %Inh for "COc1ccc(C)c(Nc2ccnc(Nc3ccc(-c4cnc[nH]4)cc3)n2)c1.Cl"
14

Give the measured %Inh for "Nc1ncc(-c2ccc3nccc(-c4ccncc4)c3c2)cc1S(=O)(=O)N1CCCCC1"
0

Give the measured %Inh for "N#Cc1cnc2cc(-c3cnc(CNCCN4CCOCC4)s3)ccc2c1Nc1ccc(Oc2ccccc2)cc1"
0

Give the measured %Inh for "c1ccc(Oc2ccc(Nc3ccnc4cc(-c5ccc(CN6CCCCC6)o5)ccc34)cc2)nc1"
2

Give the measured %Inh for "O=C(O)C(F)(F)F.O=c1[nH]ccc2nc(N[C@@H]3CCNC3)nc(Nc3ccc4c(c3)S(=O)(=O)CC4)c12"
98.4

Give the measured %Inh for "COc1ccc(NC(=O)c2ccoc2)cc1-c1ccc(C(=O)NCC2CC2)cc1"
47

Give the measured %Inh for "Cc1cccc(Nc2nc(NCCN)ncc2C(N)=O)c1"
54

Give the measured %Inh for "CN(C)CCOc1ccc(-c2cc(-c3ccc(Cl)c(O)c3)c(-c3ccncc3)[nH]2)cc1.Cl.Cl"
33
